These measurements were taken from patent US20230382909A1.

Attribute: CC50 at 3 days
test: Cell viability by CellTiter-Glo 2.0 (intracellular ATP content) in HepG2.117 cells; type: cell-based; conditions: human, CellTiter-Glo 2.0, 3 days incubation

As a guide, the following entries are already answered.
Given Smiles: Cc1cc(C)n(-c2nc3c(c(=O)n2-c2ccc(N4CC(O)C4)nc2)C[C@@H](C)N(C(=O)c2ccc(Br)c(C(F)(F)F)c2)C3)n1
CC50 at 3 days: > 500 nM
--
Given Smiles: Cc1cc(C)n(-c2nc3c(c(=O)n2-c2ccc4c(cnn4C)c2)C[C@@H](C)N(C(=O)c2ccc(Br)c(C(F)(F)F)c2)C3)n1
CC50 at 3 days: > 500 nM

// next item, CC50 at 3 days requested
CC50 at 3 days for Cc1cc(C)n(-c2nc3c(c(=O)n2-c2ccc4c(ncn4C)n2)C[C@@H](C)N(C(=O)c2ccc(Br)c(C(F)(F)F)c2)C3)n1 ?
> 500 nM
